# System: NOMO1
# Test Details: cell viability relative to DMSO control; higher = less cytotoxic
# Setup Conditions: RPMI 5 mM glucose + 10% FBS; 48 h; 46.1 µM
Measured Quantity: cell viability (%)
Please state the figure in %; there is no need to write the unit.

Task item: // map `COc1cc2ncnc(-n3nc(-c4ccccn4)nc3N)c2cc1OC` to recorded cell viability (system: NOMO1)
Reply: 1.29

Task item: Record lookup: for NOMO1, what cell viability belongs to `COc1ccc(Cc2nccc3cc(OC)c(OC)cc23)cc1OC` ?
Reply: 23.3

Task item: Please tell me: cell viability of `CNC(=O)[C@H](Cc1ccccc1)NC(=O)[C@H](CC(C)C)[C@H](CSc1cccs1)C(=O)NO` , system NOMO1?
Reply: 91.8

Task item: Lab note: need cell viability for `COc1cc(N2CCC(C(N)=O)CC2)ccc1Nc1nc(N)c(Cl)c(Nc2ccccc2[S+](=O)([O-])C(C)C)n1` on NOMO1, anyone have it?
Reply: 2.25

Task item: Form entry - test system: NOMO1; read-out: cell viability; molecule: `C[C@H]1CN(C[C@@H](C)O1)CC(=O)NC2=CC=C3SC4=C(CC3=C2)C=CC=C4\C5=C\C(=O)\C=C(/O5)N6CCOCC6`
Reply: 55.8

Task item: I'm curious: which cell viability was measured for `O=C1c2c(O)cccc2[C@H]([C@@H]2O[C@H](CO)[C@@H](O)[C@H](O)[C@H]2O)c2cc(CO)cc(O)c21` tested on NOMO1?
Reply: 84.6

Task item: Kindly state the measured cell viability obtained for `C[N]1C=NC=C1[C@@](N)(C2=CC=C(Cl)C=C2)C3=CC=C4N(C)C(=O)\C=C(\C5=CC=CC(=C5)Cl)C4=C3` with NOMO1.
Reply: 52.8

Task item: Request: cell viability, test system NOMO1, entry `C[C@H](NC(=O)C(=O)Nc1ccccc1C(C)(C)C)C(=O)N[C@@H](CC(=O)O)C(=O)COc1c(F)c(F)cc(F)c1F`
Reply: 26.5

Task item: // lookup cell viability | system=NOMO1 | key= `COc1cc2c(N3CCN(C(=O)Nc4ccc(OC(C)C)cc4)CC3)ncnc2cc1OCCCN1CCCCC1`
Reply: 67.3

Task item: Requested read-out cell viability, target or system NOMO1, entry `CSC1=CC(=CC=C1)NC2=NC3=C(C=N2)/C=C(C(=O)N3C)/C4=C(Cl)C=CC=C4Cl`
Reply: 102

Task item: Hello, I am looking for reported cell viability with NOMO1 for `O=C(NC1CCOCC1)c1ccc(-c2cc(-c3c[nH]nc3-c3ccccn3)ccn2)cc1` . Could you help?
Reply: 93.8

Task item: What value of cell viability on NOMO1 does `C[C@]\1(CCS\C(=N1)N)C2=CC(=C(F)C=C2F)C3=CN=CN=C3` have?
Reply: 15

Task item: Return cell viability measured with NOMO1 given this molecule: `Cc1cc(O)c2c3c4c(cc(O)c13)C(C)(C)C(=O)c1c(O)cc(O)c(c1-4)C2=O`
Reply: 26.1

Task item: Item `COC[C@H](NC(=O)c1cnc(C)s1)C(=O)N[C@@H](COC)C(=O)N[C@@H](Cc1ccccc1)C(=O)[C@@]1(C)CO1` with NOMO1 - cell viability?
Reply: 1.29

Task item: Which cell viability is reported with NOMO1 for this entry: CCOC(=O)C/1=C(C)/NC(=S)NC1C2=CC=CC(=C2)O (stereo not drawn) ?
Reply: 17.1

Task item: Identify the measured cell viability of `O=C(O)[C@H](Cc1c[nH]c2ccccc12)N1C(=O)c2ccccc2C1=O` for NOMO1.
Reply: 86.1

Task item: Give recorded cell viability with NOMO1 for the following molecule: `Cl.c1cnc2cc3c(cc2n1)C1CNCC3C1`
Reply: 79.4

Task item: Give recorded cell viability with NOMO1 for the following molecule: `NC(=O)c1ccc(-c2nc(-c3ccc4c(c3)OCCO4)c(-c3ccccn3)[nH]2)cc1`
Reply: 114
